Give measured switch fluorescence ratio for each item. Keep answers brief.
Tested on: ATP;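 also: ATP exposure 15 min at 22 °C before imaging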
protocol-text: switch fluorescence ratio, 500 uM ATP over buffer (Cy3 cluster intensity, sum of 5 cycles each) (fold (ratio)); higher = stronger signal-on switching upon ATP binding; sequences stand for … in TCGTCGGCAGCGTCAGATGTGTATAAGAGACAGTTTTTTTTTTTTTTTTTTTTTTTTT…TC
measurement-context: aptamer strand: ATP DNA aptamer (quencher-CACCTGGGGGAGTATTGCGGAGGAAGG + anchor), 100 nM annealed; ATP concentration: 500 uM
// keep it numeric: no unit symbol after the value

Quick note, switch fluorescence ratio for GGGGGTACGA landed at 1.01

Quick note, switch fluorescence ratio for AAGCGTTTTT landed at 1.02

Quick note, switch fluorescence ratio for CGAAAAGAAT landed at 1.02

Quick note, switch fluorescence ratio for TTTATTCTAA landed at 0.976

Quick note, switch fluorescence ratio for GGCGTTGGGT landed at 0.993

Quick note, switch fluorescence ratio for GCGCGTGGAG landed at 1.04

Quick note, switch fluorescence ratio for GGGGGTGGTT landed at 0.99

Quick note, switch fluorescence ratio for TTTGTAAAGT landed at 0.976

Quick note, switch fluorescence ratio for TCGGGCCCGG landed at 1

Quick note, switch fluorescence ratio for ATGGAGAAAG landed at 1.02

Quick note, switch fluorescence ratio for TAAGGTACGA landed at 1.05

Quick note, switch fluorescence ratio for GCTCGCAGAT landed at 1.21

Quick note, switch fluorescence ratio for TTAGGGGGAA landed at 1.01

Quick note, switch fluorescence ratio for TTTGTTGGCT landed at 0.972

Quick note, switch fluorescence ratio for ACGCTGGGGG landed at 1.06

Quick note, switch fluorescence ratio for TATCGGATGG landed at 1.02

Quick note, switch fluorescence ratio for ATATCGTCGG landed at 0.988

Quick note, switch fluorescence ratio for CGGGCAGGTT landed at 1.11

Quick note, switch fluorescence ratio for GCTGTTCAAG landed at 1

Quick note, switch fluorescence ratio for GGGTTTTACT landed at 0.991

Quick note, switch fluorescence ratio for ATGTGGCTCT landed at 0.998

Quick note, switch fluorescence ratio for ATGCATAGAT landed at 1.01

Quick note, switch fluorescence ratio for GGTGAATAAT landed at 0.997

Quick note, switch fluorescence ratio for TATAGGCAGG landed at 0.977

Quick note, switch fluorescence ratio for GGAGTTGAGG landed at 0.981

Quick note, switch fluorescence ratio for CGCATTTAAG landed at 1.18

Quick note, switch fluorescence ratio for CCGCGGGGGG landed at 1.08

Quick note, switch fluorescence ratio for TTGGTGGCGG landed at 0.978

Quick note, switch fluorescence ratio for GGTGATGATC landed at 1.04

* * *

Give measured switch fluorescence ratio for each item. Keep answers brief.
Tested on: ATP;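 also: ATP exposure 15 min at 22 °C before imaging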
protocol-text: switch fluorescence ratio, 500 uM ATP over buffer (Cy3 cluster intensity, sum of 5 cycles each) (fold (ratio)); higher = stronger signal-on switching upon ATP binding; sequences stand for … in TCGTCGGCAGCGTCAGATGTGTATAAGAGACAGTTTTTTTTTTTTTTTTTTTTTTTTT…TC
measurement-context: aptamer strand: ATP DNA aptamer (quencher-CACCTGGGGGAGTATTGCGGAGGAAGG + anchor), 100 nM annealed; ATP concentration: 500 uM
// keep it numeric: no unit symbol after the value

Record TGATTTAGGC ; system ATP; switch fluorescence ratio = 0.98

Record GCGGAGGGTG ; system ATP; switch fluorescence ratio = 1.03

Record ATGGTCGGGA ; system ATP; switch fluorescence ratio = 0.986

Record AAGGTAACGG ; system ATP; switch fluorescence ratio = 0.972

Record TGGGACCTGG ; system ATP; switch fluorescence ratio = 1.07

Record TCTTTTGGGC ; system ATP; switch fluorescence ratio = 1.02

Record TGGCAGGCAC ; system ATP; switch fluorescence ratio = 1.04

Record TGGATGAATT ; system ATP; switch fluorescence ratio = 0.998

Record CGGGGTTCGT ; system ATP; switch fluorescence ratio = 0.983

Record ATTTTTGAGG ; system ATP; switch fluorescence ratio = 1.02

Record GGGGGGTTAT ; system ATP; switch fluorescence ratio = 0.993

Record CTATTTTTAG ; system ATP; switch fluorescence ratio = 0.997

Record TACGACGGGC ; system ATP; switch fluorescence ratio = 1.57

Record AAAAGTCGCT ; system ATP; switch fluorescence ratio = 1.03

Record AAAGGGTTCG ; system ATP; switch fluorescence ratio = 1

Record GGGAAGAGGC ; system ATP; switch fluorescence ratio = 1.01

* * *

Tested on: ATP;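 also: ATP exposure 15 min at 22 °C before imaging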
protocol-text: switch fluorescence ratio, 500 uM ATP over buffer (Cy3 cluster intensity, sum of 5 cycles each) (fold (ratio)); higher = stronger signal-on switching upon ATP binding; sequences stand for … in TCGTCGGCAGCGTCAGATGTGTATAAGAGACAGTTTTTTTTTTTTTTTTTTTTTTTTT…TC
measurement-context: aptamer strand: ATP DNA aptamer (quencher-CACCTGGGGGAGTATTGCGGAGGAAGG + anchor), 100 nM annealed; ATP concentration: 500 uM
observed-property: switch fluorescence ratio
// keep it numeric: no unit symbol after the value

Quick note, switch fluorescence ratio for GGATTATATT landed at 1.02

Quick note, switch fluorescence ratio for TTTACCGCTC landed at 1.26

Quick note, switch fluorescence ratio for TCCTAAGGGG landed at 1.79

Quick note, switch fluorescence ratio for GCCGGTTATC landed at 1

Quick note, switch fluorescence ratio for GCTTGGAGGG landed at 0.983

Quick note, switch fluorescence ratio for TACCTGCAGC landed at 1.12

Quick note, switch fluorescence ratio for TATGCGAGAC landed at 2.3

Quick note, switch fluorescence ratio for AATCGGGAGT landed at 1.01

Quick note, switch fluorescence ratio for TTGTGCGGGA landed at 0.999

Quick note, switch fluorescence ratio for GTGGGAAAGT landed at 1.04

Quick note, switch fluorescence ratio for AAAGTAAAGT landed at 1.01

Quick note, switch fluorescence ratio for AAAATCAGCG landed at 1

Quick note, switch fluorescence ratio for GAATGGGGCC landed at 1.01

Quick note, switch fluorescence ratio for TTACCAGATT landed at 0.982

Quick note, switch fluorescence ratio for GATAGGAGGA landed at 1

Quick note, switch fluorescence ratio for CAGAGGAAGT landed at 1.02

Quick note, switch fluorescence ratio for GAACTCGGTC landed at 0.994

Quick note, switch fluorescence ratio for TTTTTTGATG landed at 1.01

Quick note, switch fluorescence ratio for GGCTTAGGGC landed at 1.02

Quick note, switch fluorescence ratio for GTCGAATGGG landed at 1

Quick note, switch fluorescence ratio for TGCAGGGCAA landed at 1.02

Quick note, switch fluorescence ratio for ATAAAGGGCT landed at 0.988

Quick note, switch fluorescence ratio for TAGTTTTCAG landed at 1.02

Quick note, switch fluorescence ratio for GTAGCTGGTG landed at 1.02

Quick note, switch fluorescence ratio for AATGTGTGAA landed at 1.01

Quick note, switch fluorescence ratio for AATATGAGAT landed at 0.98

Quick note, switch fluorescence ratio for GTTTCGTCCA landed at 2.1

Quick note, switch fluorescence ratio for TCGAGGGAGG landed at 0.994

Quick note, switch fluorescence ratio for GATTTTATGT landed at 1.05

Quick note, switch fluorescence ratio for GAATGGGGAT landed at 1.01

Quick note, switch fluorescence ratio for CGGGGTTTGT landed at 1.01

Quick note, switch fluorescence ratio for AATCAATCTA landed at 1.01

* * *

Tested on: ATP;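 also: ATP exposure 15 min at 22 °C before imaging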
protocol-text: switch fluorescence ratio, 500 uM ATP over buffer (Cy3 cluster intensity, sum of 5 cycles each) (fold (ratio)); higher = stronger signal-on switching upon ATP binding; sequences stand for … in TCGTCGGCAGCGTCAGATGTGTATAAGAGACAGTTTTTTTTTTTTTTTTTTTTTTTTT…TC
measurement-context: aptamer strand: ATP DNA aptamer (quencher-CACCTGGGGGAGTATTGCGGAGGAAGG + anchor), 100 nM annealed; ATP concentration: 500 uM
observed-property: switch fluorescence ratio
// keep it numeric: no unit symbol after the value

Record GGATTTTATC ; system ATP; switch fluorescence ratio = 0.992

Record GCTCGGTTG ; system ATP; switch fluorescence ratio = 1.01

Record GATTATTGGG ; system ATP; switch fluorescence ratio = 0.988

Record TTTGTTGTAT ; system ATP; switch fluorescence ratio = 1

Record AGTTTTTTAT ; system ATP; switch fluorescence ratio = 1

Record GATTCGGTCT ; system ATP; switch fluorescence ratio = 1.02

Record GCGGGTTAAA ; system ATP; switch fluorescence ratio = 0.991

Record CGGCTGGGCT ; system ATP; switch fluorescence ratio = 0.988

Record GCGATTTAGA ; system ATP; switch fluorescence ratio = 0.994

Record GCGATAAATT ; system ATP; switch fluorescence ratio = 0.983

Record AGGACCAGGT ; system ATP; switch fluorescence ratio = 1.02

Record GGGGTTCTAG ; system ATP; switch fluorescence ratio = 0.999

Record AGATATTGGG ; system ATP; switch fluorescence ratio = 0.992

Record TATAGAGTTT ; system ATP; switch fluorescence ratio = 1.01

Record ATCCGTGTCG ; system ATP; switch fluorescence ratio = 1.02

Record TGTAACTTCG ; system ATP; switch fluorescence ratio = 1

Record AAGATTCGCG ; system ATP; switch fluorescence ratio = 0.991

Record ATGCGCCGGT ; system ATP; switch fluorescence ratio = 1.01

Record ACCAGTGCTG ; system ATP; switch fluorescence ratio = 1

Record GTTAGGGGGG ; system ATP; switch fluorescence ratio = 0.979

Record TGTTATTGAT ; system ATP; switch fluorescence ratio = 1.02

Record ATGAGTGCTC ; system ATP; switch fluorescence ratio = 0.98

Record ATGAATTTGG ; system ATP; switch fluorescence ratio = 0.973

Record GTCTATACAT ; system ATP; switch fluorescence ratio = 0.973

Record ATTTGATTCA ; system ATP; switch fluorescence ratio = 0.997

Record TGGCCTTGTG ; system ATP; switch fluorescence ratio = 1.02

Record CGGAGTGTGT ; system ATP; switch fluorescence ratio = 1.01

Record TGGTTACCTA ; system ATP; switch fluorescence ratio = 0.987

Record GATGAGCCTA ; system ATP; switch fluorescence ratio = 1.01

Record TAGTGCACGG ; system ATP; switch fluorescence ratio = 0.995
